FYI, the data here is from paper PMC8904830.

molecular target: the molecule itself; assay: SEC; homodimeric NF-κB complexes concentrated and injected on Superdex 200 16/60 in 20 mM Tris-HCl pH 7.5, 150 mM NaCl, 5 mM β-mercaptoethanol, 2% glycerol

| protein | binding result |
| --- | --- |
| NF-κB p65 (residues 1-306) (domain or fragment, human, UniProt Q04206 1-306, looked up, NF-κB p65 (RelA), human, residues 1-306 (Rel homology region with the C-terminal NLS), untagged; also called RelA; p65 RHR; source: E. coli BL21 DE3, purified (polyethyleneimine and ammonium sulfate precipitation, HiTrap SP, Superdex 200)) MDELFPLIFPAEPAQASGPYVEIIEQPKQRGMRFRYKCEGRSAGSIPGERSTDTTKTHPTIKINGYTGPGTVRISLVTKDPPHRPHPHELVGKDCRDGFYEAELCPDRCIHSFQNLGIQCVKKRDLEQAISQRIQTNNNPFQVPIEEQRGDYDLNAVRLCFQVTVRDPSGRPLRLPPVLSHPIFDNRAPNTAELKICRVNRNSGSCLGGDEIFLLCDKVQKEDIEVYFTGPGWEARGSFSQADVHRQVAIVFRTPPYADPSLQAPVRVSMQLRRPSDRELSEPMEFQYLPDTDDRHRIEEKRKRTY | binds |
| ΔDBD-p65 (residues 191-316) (domain or fragment, human, UniProt Q04206 191-316, looked up, also called p65 dimerization domain; source: E. coli BL21 DE3, purified (Glutathione Resin, PreScission cleavage, Superdex 200)) TAELKICRVNRNSGSCLGGDEIFLLCDKVQKEDIEVYFTGPGWEARGSFSQADVHRQVAIVFRTPPYADPSLQAPVRVSMQLRRPSDRELSEPMEFQYLPDTDDRHRIEEKRKRTYETFKSIMKKS | binds |
